Assay: chemical genetic growth profiling, strain panel (AID 1159580);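 also: tested at 20 µM; growth read once vehicle control cultures reached saturation at 30 °C; 1 = growth at the plate median or of vehicle wells; lower values mean less growth of the strain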
Conditions: S. cerevisiae deletion strains, growth OD, locus YPL256C, strain CLN2
Hit rate of the full screen: of about 5,500 compounds, about 2,000 (36%) were called active. Another 18% or so got no clear call; they are omitted. Rule as the data show it: active = normalized growth mostly below about 0.91 (no sharp cut-off); inconclusive = no clear call, values can overlap the other calls; inactive = mostly above about 0.92. The list shows a part of the results.
Outcomes: 1 for active, 0 for inactive

MOLECULE	DISCRETE LABEL
COc1ccc2ccc(=O)oc2c1	0
Cc1cc(Cl)ccc1NNC(=O)c1sccc1Br	1
Oc1c(Cl)cc(Cl)cc1C=Nc1ccc(Sc2ccccc2)nc1Sc1ccccc1	1
CNC(C)C(O)c1ccccc1 (configuration not stated)	0
O=c1ccc2c(O)c3ccoc3cc2o1	0
CC1O[C@@H](Oc2c(-c3ccc(O)c(O)c3)oc3cc(O)cc(O)c3c2=O)[C@H](O)[C@H](O)[C@H]1O (some centres not stated)	0
COc1cc(OC)c2ccc(=O)oc2c1	0
COc1c2ccoc2cc2oc(=O)ccc12	0
Cc1cc(Cl)ccc1NNC(=O)c1sccc1Cl	1
O=c1c(O)c(-c2ccc(O)c(O)c2)oc2c(O[C@@H]3O[C@H](CO)[C@H](O)[C@@H](O)[C@H]3O)c(O)cc(O)c12	0
Oc1c(Br)cc(Br)cc1C=Nc1ccc(Sc2ccccc2)nc1Sc1ccccc1	1
Oc1c(Br)cc(Br)cc1/C=N\n1cnnc1	1

----------
Assay: chemical genetic growth profiling, strain panel (AID 1159580);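 also: tested at 20 µM; growth read once vehicle control cultures reached saturation at 30 °C; 1 = growth at the plate median or of vehicle wells; lower values mean less growth of the strain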
Conditions: S. cerevisiae strains, growth OD, strain wild type, hits give low values
The whole screen tested about 5,500 compounds, of which about 2,000 (36%) were called active. Not shown: some 18% with an inconclusive outcome. This is one part of the list.
VALUE KIND: normalized growth

COMPOUND	VALUE KIND	REPORTED RESULT
COc1ccccc1NC(=O)NCCSCc1ccccc1Cl	normalized growth	0.978
NC(N)=NC(=O)c1nc(Cl)c(N)nc1N	normalized growth	1
CC(C)(C)NCC(O)c1cc(Cl)c(N)c(Cl)c1 (configuration not stated)	normalized growth	1
CCOC(=O)/C(C#N)=C/c1ccc(Br)cc1	normalized growth	0.954
CC1CC[C@@]2(OC1)O[C@H]1CC3C4CC[C@@H]5C[C@@H](O)CC[C@]5(C)C4CC[C@]3(C)[C@H]1[C@@H]2C (some centres not stated)	normalized growth	1.05
CC12CCC3c4ccc(OC(=O)c5ccccc5)cc4CCC3C1CCC2O (configuration not stated)	normalized growth	1
NC(=O)c1ncn([C@@H]2O[C@H](CO)[C@@H](O)[C@H]2O)n1	normalized growth	0.996
CCc1cccc(CC)c1N(COC)C(=O)CCl	normalized growth	1
N#Cc1ccc(-c2csc(-c3ccc(Oc4ccc(C(F)(F)F)cn4)cc3)n2)cc1	normalized growth	0.99
COc1ccc(CCNc2ccc(C(F)(F)F)cc2N)cc1OC	normalized growth	1.01
COc1ccc(Cl)cc1C(=O)NCCc1ccc(S(=O)(=O)NC(=O)NC2CCCCC2)cc1	normalized growth	0.97
CCCCCCCCCCCC1=C(O)C(=O)C=C(O)C1=O	normalized growth	0.693
C[C@]12CCC3c4ccc(O)cc4CCC3C1CC[C@@H]2O (some centres not stated)	normalized growth	1
COc1cc(OC)c2ccc(=O)oc2c1	normalized growth	1.01
C[C@@H]1CC[C@@]2(OC1)O[C@H]1CC3C4CC[C@H]5C[C@@H](O)CC[C@]5(C)C4CC[C@]3(C)[C@H]1[C@@H]2C (some centres not stated)	normalized growth	1.01
CCCCOc1cc(C(=O)NCCN(CC)CC)c2ccccc2n1	normalized growth	1
CN[C@@H]1C(O)[C@@H](O[C@@H]2[C@@H](O)[C@H](O[C@H]3OC(CN)=CC[C@H]3N)[C@@H](N)C[C@H]2N)OC[C@]1(C)O (some centres not stated)	normalized growth	1.01
NS(=O)(=O)c1cc(C2(O)NC(=O)c3ccccc32)ccc1Cl (configuration not stated)	normalized growth	1.01
CC1CCC2(OC1)OC1CC3C4CC[C@H]5C[C@@H](O)CC[C@]5(C)C4CC(=O)[C@]3(C)C1C2C (some centres not stated)	normalized growth	1.01
CCOC(=O)NC1=C(C2CC2)C(=O)C(NC(=O)OCC)=C(C2CC2)C1=O	normalized growth	0.995
O=C1C=C2C(=CCOC2O)O1 (configuration not stated)	normalized growth	0.78
NC(N)=NC(=O)c1nc(Cl)c(N2CCCCCC2)nc1N	normalized growth	1.01

----------
Experiment: chemical genetic growth profiling, strain panel (AID 1159580);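 also: tested at 20 µM; growth read once vehicle control cultures reached saturation at 30 °C; 1 = growth at the plate median or of vehicle wells; lower values mean less growth of the strain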
Details: S. cerevisiae deletion strains, growth OD, locus YDR334W, strain swr1
About 2,000 (36%) of roughly 5,500 compounds were called active. Another 18% or so got no clear call; they are omitted. Cut-off read from the data, not from the text of the source: active = normalized growth mostly below about 0.91 (no sharp cut-off); inconclusive = no clear call, values can overlap the other calls; inactive = mostly above about 0.92. The list shows a part of the results. Where a SMILES comes first, the peptide text is derived from it.
Possible outcomes: active, inactive

COMPOUND	DISCRETE LABEL
CC(CC(O)C1OC1(C)C)[C@@H]1CCC2(C)C3=CCC4C(C)(C)C(=O)CCC4(C)C3CC[C@@]12C (stereo partly specified)	inactive
OCC(O)C(O)C(O)C(O)C(O)CO (stereo unspecified)	inactive
C[C@@H]1O[C@@H](OC[C@H]2OC(Oc3c(-c4ccc(O)c(O)c4)oc4cc(O)cc(O)c4c3=O)[C@H](O)[C@@H](O)[C@@H]2O)[C@H](O)[C@H](O)[C@H]1O (stereo partly specified)	inactive
CC(C)c1c(O)ccc2c1CCC1[C@@](C)(C=O)CCC[C@]21C (stereo partly specified)	inactive
NC(N)=NC(=O)c1nc(Cl)c(N)nc1N	inactive
CC(C)[N+](C)(CCC(C(N)=O)(c1ccccc1)c1ccccc1)C(C)C	inactive
C[N+](C)(C)CC(O)CC(=O)O (stereo unspecified)	inactive
COc1ccc(-c2oc3c(CC=C(C)C)c(O[C@@H]4O[C@H](CO)[C@@H](O)[C@H](O)[C@H]4O)cc(O)c3c(=O)c2O[C@@H]2O[C@@H](C)[C@H](O)[C@@H](O)[C@H]2O)cc1	inactive
CC(C)(C)NCC(O)c1cc(O)cc(O)c1 (stereo unspecified)	inactive
CCOC(=O)c1c(C)cc(O)cc1O	inactive
O=c1ccc2cc(OC3OC(CO)C(O)C(O)C3O)c(O)cc2o1 (stereo unspecified)	inactive
CC(=O)OC(C)C[N+](C)(C)C (stereo unspecified)	inactive
CCCCCCC(C)OC(=O)COc1ccc(Cl)cc1Cl (stereo unspecified)	inactive
COC1=CC(=O)C(O)=C/C1=C\C=C\c1ccccc1	active
CCC(N)C(O)c1ccc(O)c(O)c1 (stereo unspecified)	inactive
N#Cc1nn(-c2c(Cl)cc(C(F)(F)F)cc2Cl)c(N)c1S(=O)C(F)(F)F (stereo unspecified)	inactive
Cc1cc(OC(=O)c2c(C)cc(O)cc2O)cc(O)c1C(=O)O	inactive
COc1ccc2ccc(=O)oc2c1	inactive
CC[n+]1c(-c2ccccc2)c2cc(N)ccc2c2ccc(N)cc21	inactive
CC(C)c1c(O)ccc2c1CCC1[C@@](C)(CO)CCC[C@]21C (stereo partly specified)	inactive
COC(=O)c1c(C)cc(OC)cc1O	inactive
C[C@@H]1O[C@@H](OC[C@H]2OC(Oc3c(-c4ccc(OCCO)c(OCCO)c4)oc4cc(OCCO)cc(O)c4c3=O)[C@H](O)[C@@H](O)[C@@H]2O)[C@H](O)[C@H](O)[C@H]1O (stereo partly specified)	inactive
CCC1OC(=O)[C@H](C)C(=O)[C@H](C)[C@@H](OC2O[C@H](C)C[C@H](N(C)C)[C@H]2O)[C@](C)(OC)C2(CCCn3cnc(-c4cccnc4)c3)C[C@@H](C)C(=O)[C@H](C)[C@H]3N(C2)C(=O)O[C@]13C (stereo partly specified)	inactive
C=C(C)[C@H]1COc2cc3oc(=O)ccc3cc2O1	inactive
COC(=O)[C@H](Cc1ccccc1)NC(=O)[C@@H](N)CC(=O)O (H-Asp-Phe-OMe)	inactive
COc1cc2occc2c2oc(=O)ccc12	inactive
CC/C(=C(/CC)c1ccc(O)cc1)c1ccc(O)cc1	inactive
CCOC(=O)c1c(C)cc(OC)cc1O	inactive
CC(CC(C(N)=O)(c1ccccc1)c1ccccc1)N(C)C (stereo unspecified)	inactive
COc1ccccc1/C=C\C(=O)O	inactive
O=c1ccc2c(O)c3ccoc3cc2o1	inactive
O=C1C=C2C(=CCOC2O)O1 (stereo unspecified)	active
O=C(O[C@@H]1Cc2c(O)cc(O)cc2O[C@@H]1c1cc(O)c(=O)c2c(O)c(O)cc([C@H]3Oc4cc(O)cc(O)c4C[C@H]3O)c2c1)c1cc(O)c(O)c(O)c1	active
CN1C[C@H](C(=O)N[C@]2(C)O[C@@]3(O)[C@@H]4CCCN4C(=O)[C@H](Cc4ccccc4)N3C2=O)C[C@@H]2c3cccc4[nH]cc(c34)C[C@H]21	inactive
COc1cc(OC)c2c(=O)c(O)c(-c3ccc(OC)c(OC)c3)oc2c1	active
CCC(c1ccc(O)cc1)C(CC)c1ccc(O)cc1 (stereo unspecified)	inactive
CC1(C)C2CC(=O)[C@]3(C)C(CC[C@@]4(C)[C@H](c5ccoc5)OC(=O)C5OC543)[C@@]2(C)[C@@H](O)C[C@H]1O (stereo partly specified)	inactive
COc1cccc2c(C)cc(=O)[nH]c12	inactive
CC(C)c1c(O)ccc2c1CCC1C(C)(C)CCC[C@]21C (stereo partly specified)	inactive
CC1O[C@@H](Oc2c(-c3ccc(O)c(O)c3)oc3cc(O)cc(O)c3c2=O)[C@H](O)[C@H](O)[C@H]1O (stereo partly specified)	inactive
C[C@H]1O[C@H](OC2[C@@H](O)[C@@H](O)C(O)[C@H](O)[C@H]2O)[C@@H](N)C[C@@H]1N=C(N)C(=O)O (stereo partly specified)	inactive
